- Assayed Target: KRAS-G12V (Homo sapiens, UniProt P01116, G12V)
- Sequence (P01116 with tags, fused parts or gaps isoform P01116-2 G12V): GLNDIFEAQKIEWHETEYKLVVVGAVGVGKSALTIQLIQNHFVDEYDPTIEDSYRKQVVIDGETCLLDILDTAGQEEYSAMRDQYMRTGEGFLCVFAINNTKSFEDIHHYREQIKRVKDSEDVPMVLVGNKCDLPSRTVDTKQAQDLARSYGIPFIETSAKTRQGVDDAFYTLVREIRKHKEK
- Assay Remarks: SOS-catalyzed nucleotide exchange assay (Procedure A, TR-FRET), KRAS-G12V
- Type: biochemical
- Assay Conditions: KRAS G12V GNE IC50, nucleotide exchange
The reader will find reported IC50 values listed item by item below.
Note to self: number, then unit, no commentary.

{"Smiles Str": "C[C@@]1(O)COCCN(c2nc(OC[C@]3(CN4CC5(CCC5)C4)CC3(F)F)nc3sc4c(-c5c(C6(F)CC6)c(Cl)cc6[nH]ncc56)nccc4c23)C1", "Assayed Target": "KRAS-G12V (Homo sapiens, UniProt P01116, G12V)", "IC50": "11.1 nM"}

Exercise: Send back KRAS-G12V (Homo sapiens, UniProt P01116, G12V) IC50 of C[C@@]1(O)COCCN(c2nc(OC[C@@]34CCCN3C[C@H](F)C4)nc3sc4c(-c5c6cc(F)ccc6cc6[nH]ncc56)nccc4c23)C1 only.
Solution: 49.2 nM

Exercise: Send back KRAS-G12V (Homo sapiens, UniProt P01116, G12V) IC50 of C[C@@]1(O)COCCN(c2nc(OC[C@@]34CCCN3C[C@H](F)C4)nc3sc4c(-c5cccc(Cl)c5[Si](C)(C)C)nccc4c23)C1 only.
Solution: 157 nM
